- tested_on: Cholecystokinin receptor type A (Rattus norvegicus) (UniProt P30551)
- Sequence (P30551 whole entry): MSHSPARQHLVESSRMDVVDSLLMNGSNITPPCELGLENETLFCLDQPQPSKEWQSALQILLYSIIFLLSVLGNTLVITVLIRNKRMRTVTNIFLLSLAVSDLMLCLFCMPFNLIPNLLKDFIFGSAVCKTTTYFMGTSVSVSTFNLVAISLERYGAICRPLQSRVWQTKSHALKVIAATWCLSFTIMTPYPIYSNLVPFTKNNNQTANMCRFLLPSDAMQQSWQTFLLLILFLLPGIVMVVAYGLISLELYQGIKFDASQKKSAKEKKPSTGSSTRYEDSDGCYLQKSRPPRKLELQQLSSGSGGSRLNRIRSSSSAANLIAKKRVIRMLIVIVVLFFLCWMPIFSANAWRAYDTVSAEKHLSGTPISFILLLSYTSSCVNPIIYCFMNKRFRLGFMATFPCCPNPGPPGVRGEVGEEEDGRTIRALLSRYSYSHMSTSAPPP
- method: Displacement of [125I]BH-CCK8 from CCK1 receptor in Sprague-Dawley rat pancreatic acinar cells at 3 uM
value_type: Activity

Solved entries (count: 2):
# Activity of O=C(O)CCNC(=O)c1ccccc1NC(=O)c1cc2ccccc2[nH]1 = < 20%

For this compound ( CCCCCN(CCCCC)C(=O)C(Cc1ccccc1)NC(=O)c1ccccc1NC(=O)c1cc2ccccc2[nH]1 (configuration not stated) ), measured Activity is < 20%

Next:
The compound identified as O=C(Nc1ccccc1C(=O)NCCc1ccccc1)c1cc2ccccc2[nH]1 registered its Activity at < 20%

Value of Activity reported for the compound CCOC(=O)C(Cc1ccccc1)NC(=O)c1ccccc1NC(=O)c1cc2ccccc2[nH]1 (racemic) is 20%

The compound O=C(Nc1ccccc1C(=O)NCCc1c[nH]c2ccccc12)c1cc2ccccc2[nH]1 showed Activity equal to < 20%

Documented Activity of O=C(Nc1ccccc1C(=O)NC(CO)Cc1ccccc1)c1cc2ccccc2[nH]1 (racemic) : 32%

Consider O=C(O)CCCNC(=O)c1ccccc1NC(=O)c1cc2ccccc2[nH]1 . Its measured Activity is < 20%
